- ASSAY TARGET: MK2 (Homo sapiens, UniProt P49137)
- Sequence (P49137 whole entry): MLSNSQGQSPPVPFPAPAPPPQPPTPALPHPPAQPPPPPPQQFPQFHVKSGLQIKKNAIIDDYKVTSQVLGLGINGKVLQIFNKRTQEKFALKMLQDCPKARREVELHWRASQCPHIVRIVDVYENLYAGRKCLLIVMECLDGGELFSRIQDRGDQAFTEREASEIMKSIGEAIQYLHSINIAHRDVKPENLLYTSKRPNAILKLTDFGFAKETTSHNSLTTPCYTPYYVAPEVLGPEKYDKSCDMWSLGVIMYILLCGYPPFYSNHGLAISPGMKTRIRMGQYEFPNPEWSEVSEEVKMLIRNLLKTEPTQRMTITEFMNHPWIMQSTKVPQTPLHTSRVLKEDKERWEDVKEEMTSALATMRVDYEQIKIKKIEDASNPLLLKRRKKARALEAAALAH
- PROTOCOL NOTES: MK2 degradation in human SW1353 cells (MSD, 24 h)
- Format: cell-based
- Parameters: endogenous in cells; host or cells: SW-1353 (ATCC HTB-94)
- CONDITION DESCRIPTION: read-out: MK2 MSD SW1353 degradation 24 h GMean External Abs DC50
RECORDED METRIC: DC50

Field: example entries. Status: answers known.
COMPOUND | DC50
O=C1CCN(c2cncc3c(N4CCC(CN5CCN(c6ccc(-c7cc(-c8cc9c([nH]8)CCNC9=O)ccn7)cc6)CC5)CC4)cccc23)C(=O)N1 | 10 to 100 nM
C[C@@H]1CNc2c(sc3ccc4nc(-c5ccc(N6CCN(CC7CCN(c8ccc(N9CCC(=O)NC9=O)cc8)CC7)CC6)nc5)ccc4c23)C(=O)N1 | 1 to 10 nM
Cc1cc(N2CCC(CN3CCN(c4ccc5c(c4)n(C)c(=O)n5C4CCC(=O)NC4=O)CC3)CC2)ccc1-c1ccc2c(ccc3sc4c(c32)NC[C@@H](C)NC4=O)n1 (some centres unmarked) | < 1 nM
Cn1c(=O)n(C2CCC(=O)NC2=O)c2ccc(N3CCC(CN4CCN(c5ccc6oc(-c7cc(Nc8ccnc(N)n8)cc8cn[nH]c78)cc6c5)CC4)CC3)cc21 (centres unmarked) | > 100 nM
C[C@@H]1CNc2c(sc3ccc4nc(-c5ccc(CNC(=O)CCCCCCCc6cccc7c6n(C)c(=O)n7C6CCC(=O)NC6=O)cc5)ccc4c23)C(=O)N1 (some centres unmarked) | 1 to 10 nM
C[C@@H]1CNc2c(sc3ccc4nc(-c5cccc(N6CCN(C(=O)COCCOCCc7cccc8c7n(C)c(=O)n8C7CCC(=O)NC7=O)CC6)c5)ccc4c23)C(=O)N1 (some centres unmarked) | < 1 nM
O=C1CCC(N2Cc3cc(N4CCN(CC5CCN(c6ccc(-c7cc(-c8cc9c([nH]8)CCNC9=O)ccn7)c(F)c6)CC5)CC4)ccc3C2=O)C(=O)N1 (centres unmarked) | 10 to 100 nM
C[C@@H]1CNc2c(sc3ccc4nc(-c5ccc(N6CC7(CCN(c8ccc9c(c8)n(C)c(=O)n9C8CCC(=O)NC8=O)CC7)C6)nc5)ccc4c23)C(=O)N1 (some centres unmarked) | < 1 nM
C[C@@H]1CNc2c(sc3ccc4nc(-c5cccc(C#CCCNC(=O)COCCOCCc6ccc7c(c6)n(C)c(=O)n7C6CCC(=O)NC6=O)c5)ccc4c23)C(=O)N1 (some centres unmarked) | 1 to 10 nM
CC(C)c1cc(-c2ccc3c(ccc4sc5c(c43)NC[C@@H](C)NC5=O)n2)cc(N2CCN(CC3CCN(c4ccc5c(c4)n(C)c(=O)n5C4CCC(=O)NC4=O)CC3)CC2)c1 (some centres unmarked) | 1 to 10 nM

With those in mind, consider the next compound.
Entry under review: C[C@@H]1CNc2c(sc3ccc4nc(N5CCN(CCC6CCN(c7ccc8c(c7)n(C)c(=O)n8C7CCC(=O)NC7=O)CC6)CC5)ccc4c23)C(=O)N1 (some centres unmarked) . Reported DC50?
< 1 nM

---

- ASSAY TARGET: MK2 (Homo sapiens)
- PROTOCOL NOTES: MK2 degradation in human THP-1 monocytic cells (MSD, 24 h)
- Type: cell-based
- Design: endogenous in cells
- CONDITION DESCRIPTION: THP-1, THP-1 cells
RECORDED METRIC: Dmax

Field: example entries. Status: answers known.
COMPOUND | Dmax
Cn1c(=O)n(C2CCC(=O)NC2=O)c2ccc(N3CCC(CN4CCN(c5ccc(-c6cc(-c7cc8c([nH]7)C7(CCC7)CNC8=O)ccn6)cn5)CC4)CC3)cc21 (stereo not drawn) | > 75%
C[C@@H]1CNc2c(sc3ccc4nc(-c5cccc(N6CCN(CCCCCc7cccc8c7n(C)c(=O)n8C7CCC(=O)NC7=O)CC6)c5)ccc4c23)C(=O)N1 (stereo partly drawn) | > 75%

With those in mind, consider the next compound.
Entry under review: C[C@@H]1CNc2c(sc3ccc4nc(-c5ccc(N6CCC(CN7CCC(c8cccc9c8n(C)c(=O)n9C8CCC(=O)NC8=O)CC7)CC6)cc5)ccc4c23)C(=O)N1 (stereo partly drawn) . Reported Dmax?
> 75%
